Test: Cytotoxicity activity against human PBMC cells assessed as inhibition of cell proliferation incubated for 72 hrs by MTT assay
Format: toxicity, cell-based
test.readout: IC50 at 72 h (µM)
Write the number in µM without appending the unit.

# input compound: `Cc1cc(Nc2ccc(NC(=O)c3ccc(Nc4ccnc5ccccc45)cc3)cc2)nc(N)n1` ; wanted: its IC50 at 72 h
2

Entry to check: `Cc1oc2ncn(CCCN3CCCC3)c(=O)c2c1C(=O)Nc1ccc(S(N)(=O)=O)nc1`
161

Would you mind doing `Cc1oc2ncn(CCN(C)C)c(=O)c2c1C(=O)Nc1ccc(S(N)(=O)=O)nc1` as well?
131

Another compound: `Cc1oc2ncn(CCN3CCCC3)c(=O)c2c1C(=O)Nc1ccc(S(N)(=O)=O)nc1`
91

Next entry: `Cc1oc2ncn(CCN3CCCCC3)c(=O)c2c1C(=O)Nc1ccc(S(N)(=O)=O)nc1`
137

Subsequent entry: `Cc1oc2ncn(CCCN3CCCCC3)c(=O)c2c1C(=O)Nc1ccc(S(N)(=O)=O)nc1`
144
